MEASUREMENT TARGET: p47 (endogenous) (human (endogenous in U2OS), UniProt Q9UNZ2)
Sequence (Q9UNZ2 whole entry, the tested form may be a part): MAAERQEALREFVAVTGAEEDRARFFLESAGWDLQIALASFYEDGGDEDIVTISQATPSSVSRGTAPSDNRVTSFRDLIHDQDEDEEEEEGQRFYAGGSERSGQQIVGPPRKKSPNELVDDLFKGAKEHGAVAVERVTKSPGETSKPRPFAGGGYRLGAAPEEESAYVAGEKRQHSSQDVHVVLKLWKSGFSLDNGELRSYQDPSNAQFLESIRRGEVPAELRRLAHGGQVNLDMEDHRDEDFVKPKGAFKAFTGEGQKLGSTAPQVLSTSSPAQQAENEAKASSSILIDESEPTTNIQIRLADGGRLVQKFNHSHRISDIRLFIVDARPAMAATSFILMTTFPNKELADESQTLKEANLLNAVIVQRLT
TEST SUMMARY: co-IP; co-IP of p47 from lysates of U2OS cells transfected with plasmids for HA-tagged antibody fragments; p47-containing complexes captured and blotted
EXPERIMENTAL CONTEXT: partners not purified
MEASUREMENT NAME: binding result

scFab-NLS E04 with C-terminal HA tag, expressed in cells (Fab, V domains shown) VH: EVQLVESGGGLVQPGGSLRLSCAASGFNFSSYSIHWVRQAPGKGLEWVASISPYYGSTYYADSVKGRFTISADTSKNTAYLQMNSLRAEDTAVYYCARYKYYMSGRYTWALDYWGQGTLVTVSS VL: DIQMTQSPSSLSASVGDRVTITCRASQSVSSAVAWYQQKPGKAPKLLIYSASSLYSGVPSRFSGSRSGTDFTLTISSLQPEDFATYYCQQEFFVPFTFGQGTKVEIK | binds
scFv-E04 with C-terminal HA tag, expressed in cells (scFv, V domains shown) VH: QVQLVESGGGLVQPGGSLRLSCAASGFNFSSYSIHWVRQAPGKGLEWVASISPYYGSTYYADSVKGRFTISADTSKNTAYLQMNSLRAEDTAVYYCARYKYYMSGRYTWALDYWGQGTLVTVSS VL: DIQMTQSPSSLSASVGDRVTITCRASQSVSSAVAWYQQKPGKAPKLLIYSASSLYSGVPSRFSGSRSGTDFTLTISSLQPEDFATYYCQQEFFVPFTFGQGTKVEIK | binds
scFab-A06 with C-terminal HA tag, expressed in cells (Fab, V domains shown) VH: EVQLVESGGGLVQPGGSLRLSCAASGFNISSYSMHWVRQAPGKGLEWVASISSSYGSTYYADSVKGRFTISADTSKNTAYLQMNSLRAEDTAVYYCARSDWYYGDAWGVPYYAFDYWGQGTLVTVSS VL: DIQMTQSPSSLSASVGDRVTITCRASQSVGSALAWYQQKPGKAPKLLIYSASSLYSGVPSRFSGSRSGTDFTLTISSLQPEDFATYYCQQSWFLITFGQGTKVEIK | binds
